target: Bcl-xL (Homo sapiens, UniProt Q07817); experiment: Bcl-xL binding affinity analysis (fluorescence polarization binding assay); set-up: scale not given here
Sequence (Q07817 whole entry): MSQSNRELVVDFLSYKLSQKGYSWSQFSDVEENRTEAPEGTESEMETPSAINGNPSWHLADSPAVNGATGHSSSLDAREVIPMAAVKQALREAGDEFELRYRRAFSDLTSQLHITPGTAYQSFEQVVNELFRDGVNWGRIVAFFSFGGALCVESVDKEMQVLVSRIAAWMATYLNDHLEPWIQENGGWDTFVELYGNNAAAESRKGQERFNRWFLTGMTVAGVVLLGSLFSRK
MEASURED PARAMETER: Bcl-XL binding affinity Ki

The cases that follow already have their Bcl-XL binding affinity Ki on record.
CCCCCCCN(CCN(C)C)Cc1cccc(CN2O[C@@H](CO)C([C@H](C)O)[C@H]2C(=O)N[C@H]2C[C@H]3C[C@@H]([C@@H]2C)C3(C)C)c1 (some centres unmarked) ... ♯
CC(C)CC(CN(C)C)N(Cc1cccc(CN2OC(CO)C(C(C)O)C2C(=O)NC2CC3CC(C2C)C3(C)C)c1)Cc1ccccc1[N+](=O)[O-] (centres unmarked) ... ♯
C[C@@H]1[C@@H](NC(=O)[C@@H]2[C@H]([C@H](C)O)[C@H](CO)ON2Cc2cccc(-c3cccc(C(=O)N4CC[C@@H](N(C)C)C4)c3)c2)C[C@H]2C[C@@H]1C2(C)C ... ♯♯
CC(O)C1C(CO)ON(Cc2cccc(CN(CCN(C)C)Cc3cccc4ccccc34)c2)C1C(=O)NC1CC2CC(C1C)C2(C)C (centres unmarked) ... ♯
COc1c(CN2O[C@@H](CO)[C@@H]([C@H](C)O)[C@H]2C(=O)N[C@H]2C[C@H]3C[C@@H]([C@@H]2C)C3(C)C)cccc1-c1cccc(C(=O)N[C@H](CN(C)C)CC(C)(C)C)c1 ... ♯
C[C@@H]1[C@@H](NC(=O)[C@@H]2[C@H]([C@H](C)O)[C@H](CO)ON2Cc2cccc(-c3ccc(C(=O)N4CCOCC4)cc3)c2)C[C@H]2C[C@@H]1C2(C)C ... ♯
C[C@@H]1C(NC(=O)[C@@H]2[C@H]([C@H](C)O)[C@H](CO)ON2Cc2cccc(-c3ccc(NC(=O)N(C)CCCN(C)C)cc3)c2)C[C@@H]2CC1C2(C)C (some centres unmarked) ... ♯♯
CC(O)C1C(CO)ON(Cc2cccc(CN(C)CC(=O)N(C)C)c2)C1C(=O)NC1CC2CC(C1C)C2(C)C (centres unmarked) ... ♯

# per-item lookup of Bcl-XL binding affinity Ki; items listed below
1. CCCNC(=O)c1cccc(-c2cccc(CN3O[C@@H](CO)[C@@H]([C@H](C)O)[C@H]3C(=O)N[C@H]3C[C@H]4C[C@@H]([C@@H]3C)C4(C)C)c2)c1
2. C[C@@H]1[C@@H](NC(=O)[C@@H]2[C@H]([C@H](C)O)[C@H](CO)ON2Cc2cccc(N3CCN(C(=S)NCc4ccccc4)CC3)c2)C[C@H]2C[C@@H]1C2(C)C
3. CCOc1cccc(CN(CCN(C)C)Cc2cccc(CN3OC(CO)C(C(C)O)C3C(=O)NC3CC4CC(C3C)C4(C)C)c2)c1 (centres unmarked)

Response:
["♯♯", "♯", "♯"]

* * *

molecular target: UniProt:Q07817; experiment: Bcl-xL binding affinity analysis (fluorescence polarization binding assay); parameters: scale not given here
MEASURED PARAMETER: Bcl-XL binding affinity Ki

Reference set, count: 5
CC(O)C1C(CO)ON(Cc2cccc(CN(CCN(C)C)Cc3ccc4ccccc4c3)c2)C1C(=O)NC1CC2CC(C1C)C2(C)C (centres unmarked) [Compound 375] ... ♯
C[C@@H]1[C@@H](NC(=O)[C@@H]2[C@H]([C@H](C)O)[C@H](CO)ON2Cc2cccc(-c3cccc(C(=O)NCCN4CCOCC4)c3)c2)C[C@H]2C[C@@H]1C2(C)C [Compound 132] ... ♯♯
C[C@@H]1[C@@H](NC(=O)[C@@H]2C([C@H](C)O)[C@H](CO)ON2Cc2cccc(CN(Cc3ccccc3Br)[C@H](CN(C)C)C(C)(C)C)c2)C[C@H]2C[C@@H]1C2(C)C (some centres unmarked) [Compound 422] ... ♯
CC(O)C1C(CO)ON(Cc2cccc(CN(CCN(C)C)Cc3cc4ccccc4o3)c2)C1C(=O)NC1CC2CC(C1C)C2(C)C (centres unmarked) [Compound 384] ... ♯
C[C@@H]1[C@@H](NC(=O)[C@@H]2[C@H]([C@H](C)O)[C@H](CO)ON2Cc2cccc(-c3ccc4c(c3)C(=O)N(C)C4=O)c2)C[C@H]2C[C@@H]1C2(C)C [Compound 128] ... ♯

Go through the items and report each one's Bcl-XL binding affinity Ki.
1. CC(O)C1C(CO)ON(Cc2cccc(CN(CCN(C)C)CC3CC3)c2)C1C(=O)NC1CC2CC(C1C)C2(C)C (centres unmarked) [Compound 390]
2. CC(C)C[C@H](CN(C)C)NC(=O)c1cccc(-c2cccc(CN3O[C@@H](CO)[C@@H]([C@H](C)O)[C@H]3C(=O)N[C@H]3C[C@H]4C[C@@H]([C@@H]3C)C4(C)C)c2)c1 [Compound 99]
3. C[C@@H]1[C@@H](NC(=O)[C@@H]2[C@H]([C@H](C)O)[C@H](CO)ON2Cc2cccc(-c3cccc(C(=O)NC[C@@H]4CCCN4C)c3)c2)C[C@H]2C[C@@H]1C2(C)C [Compound 104]

Response:
1: ♯; 2: ♯♯; 3: ♯

I would be grateful if you could provide Bcl-XL binding affinity Ki for each of the following entries.
1. C[C@@H]1[C@@H](NC(=O)[C@@H]2[C@H]([C@H](C)O)[C@H](CO)ON2Cc2cccc(-c3ccc(C(N)=O)cc3)c2)C[C@H]2C[C@@H]1C2(C)C [Compound 134]
2. CC(C)CN(CCN(C)C)Cc1cccc(CN2OC(CO)C(C(C)O)C2C(=O)NC2CC3CC(C2C)C3(C)C)c1 (centres unmarked) [Compound 379]
3. CC(O)C1C(CO)ON(Cc2cccc(C(=O)N(CCN(C)C)Cc3ccccc3)c2)C1C(=O)NC1CC2CC(C1C)C2(C)C (centres unmarked) [Compound 504]

Response:
1: ♯; 2: ♯; 3: ♯

Please give Bcl-XL binding affinity Ki, item by item, for the list that follows.
1. C[C@@H]1[C@@H](NC(=O)[C@@H]2C([C@H](C)O)[C@H](CO)ON2Cc2cccc(CN(CCN(C)C)Cc3cccc(F)c3F)c2)C[C@H]2C[C@@H]1C2(C)C (some centres unmarked) [Compound 362]
2. CC(O)C1C(CO)ON(Cc2cccc(CNC(CN(C)C)C3CCCCC3)c2)C1C(=O)NC1CC2CC(C1C)C2(C)C (centres unmarked) [Compound 443]
3. C[C@@H]1[C@@H](NC(=O)[C@@H]2[C@H]([C@H](C)O)[C@H](CO)ON2Cc2cccc(-c3cccc(C(N)=O)c3)c2)C[C@H]2C[C@@H]1C2(C)C [Compound 219]
4. C[C@@H]1[C@@H](NC(=O)[C@@H]2[C@H]([C@H](C)O)[C@H](CO)ON2Cc2cccc(-c3ccc(C(=O)N(C)C)cc3)c2)C[C@H]2C[C@@H]1C2(C)C [Compound 118]
5. CC(O)C1C(CO)ON(Cc2cccc(CNC(CCc3ccccc3)CN(C)C)c2)C1C(=O)NC1CC2CC(C1C)C2(C)C (centres unmarked) [Compound 468]
6. C[C@@H]1[C@@H](NC(=O)[C@@H]2[C@H]([C@H](C)O)[C@H](CO)ON2Cc2cccc(-c3ccc(-n4ccnc4)cc3)c2)C[C@H]2C[C@@H]1C2(C)C [Compound 117]
7. Cc1ccccc1CN(CCN(C)C)Cc1cccc(CN2OC(CO)C(C(C)O)C2C(=O)NC2CC3CC(C2C)C3(C)C)c1 (centres unmarked) [Compound 372]

Response:
["♯", "♯", "♯", "♯", "♯", "♯♯", "♯"]

Batch lookup, Bcl-XL binding affinity Ki per entry.
1. C[C@@H]1[C@@H](NC(=O)[C@@H]2C([C@H](C)O)[C@H](CO)ON2Cc2ccc(C#CC3(N)CCCCC3)cc2)C[C@H]2C[C@@H]1C2(C)C (some centres unmarked) [Compound 30]
2. COc1c(CN2O[C@@H](CO)[C@@H]([C@H](C)O)[C@H]2C(=O)N[C@H]2C[C@H]3C[C@@H]([C@@H]2C)C3(C)C)cccc1-c1cccc(C(=O)N[C@H](CN(C)C)c2ccccc2)c1 [Compound 491]
3. CC(O)C1C(CO)ON(Cc2cccc(CN(CCN(C)C)Cc3ccc(-c4ccccc4)cc3)c2)C1C(=O)NC1CC2CC(C1C)C2(C)C (centres unmarked) [Compound 400]
4. CC(O)C1C(CO)ON(Cc2cccc(CN(CCN(C)C)CC3CCCOC3)c2)C1C(=O)NC1CC2CC(C1C)C2(C)C (centres unmarked) [Compound 382]

Response:
1: ♯♯; 2: ♯; 3: ♯; 4: ♯

CC(O)C1C(CO)ON(Cc2cccc(CNC(CN(C)C)CC(C)(C)C)c2)C1C(=O)NC1CC2CC(C1C)C2(C)C (centres unmarked) [Compound 455] yielded Bcl-XL binding affinity Ki of ♯

* * *

target: Bcl-xL (Homo sapiens, UniProt Q07817); assay: Bcl-xL binding affinity analysis (fluorescence polarization binding assay); parameters: scale not given here
MEASURED PARAMETER: Bcl-XL binding affinity Ki

Answered cases to consult:
COc1cccc(O)c1CN(Cc1cccc(CN2OC(CO)C(C(C)O)C2C(=O)NC2CC3CC(C2C)C3(C)C)c1)C(CC(C)C)CN(C)C (centres unmarked) ... ♯
COc1c(CN2O[C@@H](CO)[C@@H]([C@H](C)O)[C@H]2C(=O)N[C@H]2C[C@H]3C[C@@H]([C@@H]2C)C3(C)C)cccc1-c1cccc(C(=O)N[C@H](CC(C)C)CN2CCCCCC2)c1 ... ♯
COc1c(CN2O[C@@H](CO)[C@@H]([C@H](C)O)[C@H]2C(=O)N[C@H]2C[C@H]3C[C@@H]([C@@H]2C)C3(C)C)cccc1-c1cccc(C(=O)N[C@H](CCc2ccccc2)CN(C)C)c1 ... ♯
C[C@H](O)[C@@H]1[C@H](CO)ON(Cc2cccc(CN(CCN(C)C)Cc3ccccc3)c2)[C@@H]1C(=O)N[C@H](C)c1ccc2ccccc2c1 ... ♯

Record summary for `C[C@@H]1[C@@H](NC(=O)[C@@H]2[C@H]([C@H](C)O)[C@H](CO)ON2Cc2cccc(-c3cccc(C(=O)N4CCN(C)CC4)c3)c2)C[C@H]2C[C@@H]1C2(C)C` : reported Bcl-XL binding affinity Ki = ♯♯

Values from patent US7851637B2
